Target: rat α-glucosidase
Experiment: α-glucosidase inhibitory activity assay (FUJIFILM kit, maltose substrate, glucose measured by mutarotase-GOD method)
Format: biochemical
Conditions: rat α-glucosidase, 18.5 mM maltose, maleic anhydride buffer pH 6.0, 37 °C, 30 min; mean ± S.D. of n = 2

{"Compound": "O=C(OC[C@H]1OC(O)[C@H](OC(=O)c2cc(O)c(O)c(O)c2)[C@@H](OC(=O)c2cc(O)c(O)c(O)c2)[C@@H]1OC(=O)c1cc(O)c(O)c(O)c1)c1cc(O)c(O)c(O)c1 (stereo partly drawn) [Compound 61]", "Study target": "rat α-glucosidase", "Unit descriptor": "µM", "IC50": 1.68}
{"Compound": "O=C(O[C@H]1[C@H](O)[C@@H](CO)OC[C@@H]1OC(=O)c1cc(O)c(O)c(O)c1)c1cc(O)c(O)c(O)c1 [Compound 35]", "Study target": "rat α-glucosidase", "Unit descriptor": "µM", "IC50": 20.5}
{"Compound": "O=C(OC[C@H]1OC[C@H](OC(=O)c2cc(O)c(O)c(O)c2)[C@@H](OC(=O)c2cc(O)c(O)c(O)c2)[C@@H]1O)c1cc(O)c(O)c(O)c1 [Compound 42]", "Study target": "rat α-glucosidase", "Unit descriptor": "µM", "IC50": 5.34}
{"Compound": "O=C(O[C@H]1[C@H](OC(=O)c2cc(O)c(O)c(O)c2)[C@@H](CO)OC[C@@H]1O)c1cc(O)c(O)c(O)c1 [Compound 38]", "Study target": "rat α-glucosidase", "Unit descriptor": "µM", "IC50": 91.4}
{"Compound": "O=C(O[C@H]1CO[C@H](CO)[C@@H](O)[C@@H]1O)c1cc(O)c(O)c(O)c1 [Compound 31]", "Study target": "rat α-glucosidase", "Unit descriptor": "µM", "IC50": 95.1}
{"Compound": "O=C(OC[C@H]1OC[C@H](O)[C@@H](OC(=O)c2cc(O)c(O)c(O)c2)[C@@H]1OC(=O)c1cc(O)c(O)c(O)c1)c1cc(O)c(O)c(O)c1 [Compound 44]", "Study target": "rat α-glucosidase", "Unit descriptor": "µM", "IC50": 12.6}

====

Target: rat α-glucosidase
Assay: α-glucosidase inhibitory activity assay (FUJIFILM kit, maltose substrate, glucose measured by mutarotase-GOD method)
Settings: rat α-glucosidase, 18.5 mM maltose, maleic anhydride buffer pH 6.0, 37 °C, 30 min; mean ± S.D. of n = 2
pIC50: −log10 of the molar value.
Recorded pIC50 for the following molecules
Result type: pIC50

{"Molecule": "O=C(O[C@H]1[C@@H]2OC(=O)c3cc(O)c(O)c(O)c3-c3c(cc(O)c(O)c3O)C(=O)OC[C@H]2OC[C@@H]1OC(=O)c1cc(O)c(O)c(O)c1)c1cc(O)c(O)c(O)c1", "Prefix operator": "=", "Measured number": 5.49}
{"Molecule": "COC(=O)c1cc(O)c(O)c(O)c1 [Methyl gallate, reference compound]", "Prefix operator": "=", "Measured number": 4.04}
{"Molecule": "COC(=O)c1cccc(O)c1 [Methyl 3-hydroxybenzoate, methyl 3-hydroxybenzoate, reference compound]", "Prefix operator": "<", "Measured number": 3.18}
{"Molecule": "C[C@H]1O[C@H](O[C@H]2[C@H](O)[C@@H](O)[C@@H](O[C@H]3[C@H](O)[C@@H](O)C(O)O[C@@H]3CO)O[C@@H]2CO)[C@H](O)[C@@H](O)[C@@H]1N[C@H]1C=C(CO)[C@@H](O)[C@H](O)[C@H]1O (some centres unmarked) [Acarbose, reference compound]", "Prefix operator": "=", "Measured number": 6.96}
{"Molecule": "O=C(OC[C@H]1OC[C@H](OC(=O)c2cc(O)c(O)c(O)c2)[C@@H](O)[C@@H]1O)c1cc(O)c(O)c(O)c1", "Prefix operator": "=", "Measured number": 4.45}

Data origin: paper PMC6930660
